Task for the reader: assign each of the following compounds its reported chromatographic logP.
# test: logP by HPLC on reversed-phase columns (C18), EEC Directive 79/831 Annex V.A8
# Type: physicochemical
# measurement-parameters: reversed-phase HPLC column (C18), pH 2.7, HPLC reversed-phase C18, acidic range pH 2.7, 0.1% aqueous formic acid/acetonitrile; table of compounds of formula (I); read-out: log P
Give bare numbers.

// known answers, use as guide
line_notation=Cc1cc(Cl)cc(C(=O)NC(C)C)c1NC(=O)c1cc(CNS(=O)(=O)c2ccc(C(F)(F)F)c(C(F)(F)F)c2)nn1-c1ncccc1Cl endpoint_result=4
line_notation=Cc1cc(Cl)cc(C(=O)NC(C)C)c1NC(=O)c1cc(CNS(=O)(=O)c2cc(C(F)(F)F)cc(C(F)(F)F)c2)nn1-c1ncccc1Cl endpoint_result=4.1
line_notation=CNC(=O)c1cc(C#N)cc(C)c1NC(=O)c1cc(N2CCN(c3cc(C(F)(F)F)cc(C(F)(F)F)c3)C2=O)nn1-c1ncccc1Cl endpoint_result=4.08
line_notation=Cc1cc(C#N)cc(C(=O)NC(C)C)c1NC(=O)c1cc(CN(Cc2cc(C(F)(F)F)cc(C(F)(F)F)c2)S(C)(=O)=O)nn1-c1ncccc1Cl endpoint_result=3.91
line_notation=Cc1cc(Cl)cc(C(=O)NC2CC2)c1NC(=O)c1cc(CN(Cc2cc(C(F)(F)F)cc(C(F)(F)F)c2)S(C)(=O)=O)nn1-c1ncccc1Cl endpoint_result=4.05
line_notation=Cc1cc(Cl)cc(C(=O)NC(C)C)c1NC(=O)c1cc(CNS(=O)(=O)c2ccc(C(F)(F)F)cc2C(F)(F)F)nn1-c1ncccc1Cl endpoint_result=3.94
line_notation=Cc1cc(Cl)cc(C(=O)NC(C)C)c1NC(=O)c1cc(CNS(=O)(=O)Cc2ccc(C(F)(F)F)cc2C(F)(F)F)nn1-c1ncccc1Cl endpoint_result=3.92

Here is another compound to look at.
// field: chromatographic logP; key: Cc1cc(Cl)cc(C(=O)NC(C)C)c1NC(=O)c1cc(CNS(=O)(=O)Cc2cc(C(F)(F)F)cc(C(F)(F)F)c2)nn1-c1ncccc1Cl ; value = 3.95

* * *

# test: logP by HPLC on reversed-phase columns (C18), EEC Directive 79/831 Annex V.A8
# Format: physicochemical
# measurement-parameters: pH 2.7, log P
endpoint-label: chromatographic logP

line_notation=Cc1cc(Cl)cc(C(=O)NC(C)C)c1NC(=O)c1cc(C#Cc2ccc(OC(F)(F)F)cc2)nn1-c1ncccc1Cl endpoint_result=4.79

Hello, I would appreciate it if you could give chromatographic logP for each entry below.
1. Cc1cc(C#N)cc(C(=O)NC(C)(C)C)c1NC(=O)c1cc(C(=O)c2ccc(C(F)(F)F)nc2)nn1-c1ncccc1Cl
2. Cc1cc(Cl)cc(C(=O)NC(C)C)c1NC(=O)c1cc(CNS(=O)(=O)Cc2ccc(C(F)(F)F)cc2)nn1-c1ncccc1Cl

Reply text:
3.85
2.28

* * *

# test: logP by HPLC on reversed-phase columns (C18), EEC Directive 79/831 Annex V.A8
# Type: physicochemical
# measurement-parameters: pH 2.7, log P
endpoint-label: chromatographic logP
Give bare numbers.

The examples below pair each entry with its known result.
line_notation=Cc1cc(C#N)cc(C(=O)NC(C)C)c1NC(=O)c1cc(Oc2ccc(C(F)(F)F)cn2)nn1-c1ncccc1Cl endpoint_result=3.4
line_notation=Cc1cc(Cl)cc(C(=O)NC(C)C)c1NC(=O)c1cc(CNS(=O)(=O)Cc2ccccc2C(F)(F)F)nn1-c1ncccc1Cl endpoint_result=2.62

Field: next molecule
Measured chromatographic logP of Cc1cc(Cl)cc(C(=O)NC(C)C)c1NC(=O)c1cc(CNS(=O)(=O)c2ccccc2C(F)(F)F)nn1-c1ncccc1Cl : 3.26

* * *

Would you mind telling me the reported chromatographic logP of each entry?
# test: logP by HPLC on reversed-phase columns (C18), EEC Directive 79/831 Annex V.A8
# Type: physicochemical
# measurement-parameters: pH 2.7, log P
Answers are plain numbers.

For orientation, consider the following solved cases.
line_notation=CNC(=O)c1cc(C#N)cc(C)c1NC(=O)c1cc(C#Cc2ccc(OC)cc2)nn1-c1ncccc1Cl endpoint_result=3.11
line_notation=Cc1cc(C#N)cc(C(N)=O)c1NC(=O)c1cc(C#Cc2ccc(OC(F)(F)F)cc2)nn1-c1ncccc1Cl endpoint_result=3.58
line_notation=Cc1cc(Cl)cc(C(=O)NC(C)C)c1NC(=O)c1cc(CNS(=O)(=O)c2cccc(Cl)c2)nn1-c1ncccc1Cl endpoint_result=3.25
line_notation=CCOc1ccc(C(=O)c2cc(C(=O)Nc3c(C)cc(C#N)cc3C(=O)NC)n(-c3ncccc3Cl)n2)cn1 endpoint_result=2.99

Moving on to another compound below.
Reported chromatographic logP of Cc1cc(Cl)cc(C(=O)NC2CC2)c1NC(=O)c1cc(CNS(=O)(=O)c2ccccc2Cl)nn1-c1ncccc1Cl : 2.8

* * *

# test: logP by HPLC on reversed-phase columns (C18), EEC Directive 79/831 Annex V.A8
# Format: physicochemical
# measurement-parameters: reversed-phase HPLC column (C18), pH 2.7, HPLC reversed-phase C18, acidic range pH 2.7; Preparation Examples (intermediates); read-out: logP
Provide the recorded chromatographic logP for the entries that follow.
Give bare numbers.

Worked cases, chromatographic logP given:
molecule="COC(=O)c1cc(C(=O)O)nn1-c1ncccc1Cl [Example No. VIII-e]" endpoint_label="chromatographic logP" endpoint_result=1.38
molecule="CN(Cc1cc(C(=O)O)n(-c2ncccc2Cl)n1)S(=O)(=O)Cc1cc(C(F)(F)F)cc(C(F)(F)F)c1 [Example No. III-1]" endpoint_label="chromatographic logP" endpoint_result=3.07

Look at each molecule and report its chromatographic logP.
1. COC(=O)c1cc(CN(C)S(=O)(=O)Cc2cc(C(F)(F)F)cc(C(F)(F)F)c2)nn1-c1ncccc1Cl [Example No. V]
2. O=C(O)c1cc(N2CCN(c3cc(C(F)(F)F)cc(C(F)(F)F)c3)C2=O)nn1-c1ncccc1Cl [Example No. III-5]
3. COC(=O)c1cc(C2CO2)nn1-c1ncccc1Cl (centres unmarked) [Example No. XI]
4. COC(=O)c1cc(N)nn1-c1ncccc1Cl [Example No. XIX]
5. O=C(O)c1cc(C#Cc2ccc(OC(F)(F)F)cc2)nn1-c1ncccc1Cl [Example No. III-3]
6. O=C(c1ccc(C(F)(F)F)nc1)c1cc(C(=O)O)n(-c2ncccc2Cl)n1 [Example No. III-6]

Reply text:
1: 3.83; 2: 3.47; 3: 1.67; 4: 1.09; 5: 3.36; 6: 2.33

// batch mode: one chromatographic logP value per listed entry
1. O=C(C(=O)c1ccc(Cl)cc1Cl)c1cc(C(=O)O)n(-c2ncccc2Cl)n1 [Example No. III-2]
2. COC(=O)c1cc(C(=O)Nc2ccc(C(F)(F)F)cc2)nn1-c1ncccc1Cl [Example No. IX-e]
3. CCOC(=O)c1cc(C(=O)CBr)nn1-c1ncccc1Cl [Example No. VIII-a]
4. COC(=O)c1cc(C(=O)c2ccc(C(F)(F)F)nc2)nn1-c1ncccc1Cl [Example No. VIII-c]
5. O=C(O)c1cc(Nc2ccc(C(F)(F)F)cn2)nn1-c1ncccc1Cl [Example No. III-10]
6. O=[N+]([O-])c1ccn(-c2ncccc2Cl)n1 [Example No. XVI]

Reply text:
2.78
3.54
2.87
3.33
2.79
1.83

The values you see were collected from patent US8791139B2.
